Reference source for all entries: paper PMC3152585

# assay-system: recombinant human MMP-9 (rhMMP-9) (Homo sapiens, UniProt P14780)
# Sequence (P14780 107-707 limits assumed): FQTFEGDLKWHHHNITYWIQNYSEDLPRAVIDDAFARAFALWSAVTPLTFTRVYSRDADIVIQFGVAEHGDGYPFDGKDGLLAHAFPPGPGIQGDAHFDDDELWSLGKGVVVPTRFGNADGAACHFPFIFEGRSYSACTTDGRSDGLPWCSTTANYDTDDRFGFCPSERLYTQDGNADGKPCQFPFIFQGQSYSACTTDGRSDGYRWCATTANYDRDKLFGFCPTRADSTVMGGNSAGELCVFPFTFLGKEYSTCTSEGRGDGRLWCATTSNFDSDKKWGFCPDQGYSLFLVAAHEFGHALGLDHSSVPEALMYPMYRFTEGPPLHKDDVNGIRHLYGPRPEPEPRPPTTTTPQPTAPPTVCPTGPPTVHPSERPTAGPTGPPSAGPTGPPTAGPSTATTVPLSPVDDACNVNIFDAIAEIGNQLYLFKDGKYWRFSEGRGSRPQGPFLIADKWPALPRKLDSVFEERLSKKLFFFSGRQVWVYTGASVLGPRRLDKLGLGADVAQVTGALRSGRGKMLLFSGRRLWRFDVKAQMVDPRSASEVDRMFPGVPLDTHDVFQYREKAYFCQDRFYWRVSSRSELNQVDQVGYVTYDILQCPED
# test-protocol: Sensolyte Generic MMP colorimetric assay with soluble rhMMP-9
# applied-conditions: from regression of percent inhibition vs alcohol concentration; mean ± SEM, n=5
I'd be grateful if you could share measured IC50 (moles/L) for rhMMP-9 for these entries.
Report as a plain number; the unit %^b moles/L is understood.

Task: In one line, give reported IC50 (moles/L) for rhMMP-9 of the entry CCCCC(O)CC (stereo not shown) .
Output: 0.5

Task: Consider the compound CCC(C)O (stereo not shown) and give its recorded IC50 (moles/L) for rhMMP-9.
Output: 0.5

Task: Supply measured IC50 (moles/L) for rhMMP-9 of `CCCCCCCCO` in your reply.
Output: 0.3

Task: For the compound CCCC(O)CC (stereo not shown) , give its measured IC50 (moles/L) for rhMMP-9 value.
Output: 0.4

###

# assay-system: recombinant human MMP-9 (rhMMP-9) (Homo sapiens)
# test-protocol: Sensolyte Generic MMP colorimetric assay with soluble rhMMP-9
# applied-conditions: alcohol 4.28 M; mean ± SEM, n=5
reported-endpoint: % Inhibition of soluble rhMMP-9 (%^F)
Quick reminder: number only, in %^F, skip the unit.

Task: Consider the compound `CCCO` and give its recorded % Inhibition of soluble rhMMP-9.
Output: 79.7

Task: // Input: CCC(C)O (stereo not shown) . Output its % Inhibition of soluble rhMMP-9 only.
Output: 78.7

###

# test-protocol: physchem
# applied-conditions: aqueous buffer
reported-endpoint: solubility (mM)
Report as a plain number; the unit mM is understood.

Task: For the compound C=C(C)C(=O)OCCO [HEMA, 2-hydroxyethylmethacrylate] , give its reported solubility.
Output: 4280

###

# assay-system: recombinant human MMP-9 (rhMMP-9) (Homo sapiens, UniProt P14780)
# test-protocol: Sensolyte Generic MMP colorimetric assay with soluble rhMMP-9
# applied-conditions: read-out: % Inhibition of soluble rhMMP-9
Entry flag: Condition met if inhibition at 170000 µM reaches 20%; Condition not met if it does not.

Task: Threshold query (inhibition at 170000 µM >= 20%) on CCCCC(O)CC (centres unmarked)
Output: Condition not met

Task: Determine whether this molecule has inhibition at 170000 µM no lower than 20%: CCCCC(C)O (centres unmarked)
Output: Condition not met

Task: Has `CCCCCCO` a recorded inhibition at 170000 µM greater than or equal to 20%?
Output: Condition met

Task: Test whether the molecule CCCC(O)CC (centres unmarked) records inhibition at 170000 µM of 20% or higher.
Output: Condition met

Task: Test whether the molecule CCCCCCC(C)O (centres unmarked) records inhibition at 170000 µM of 20% or higher.
Output: Condition met

Task: Reported inhibition at 170000 µM reaches at least 20% for CCCCCC(C)O (centres unmarked) ?
Output: Condition not met

Task: Does `CCCCCCCCO` have a reported inhibition at 170000 µM of at least 20%?
Output: Condition met

Task: Threshold query (inhibition at 170000 µM >= 20%) on CCCCC(O)CCC (centres unmarked)
Output: Condition not met

###

# assay-system: recombinant human MMP-9 (rhMMP-9) (Homo sapiens, UniProt P14780)
# test-protocol: Sensolyte Generic MMP colorimetric assay with soluble rhMMP-9
# applied-conditions: from regression of percent inhibition vs alcohol concentration; mean ± SEM, n=5
Marks after values point to notes of the source that are not given here.
reported-endpoint: IC50 (moles/L) for rhMMP-9

Task: State its IC50 (moles/L) for rhMMP-9 for this molecule: CCCCCCC(C)O (stereo not drawn)
Output: 2.7 ± 0.18%^d moles/L

Task: Please report IC50 (moles/L) for rhMMP-9 for the following molecule: CCCCC(C)O (stereo not drawn)
Output: 1.6 ± 0.09%^c moles/L

Task: Dear colleague, please send me the reported IC50 (moles/L) for rhMMP-9 for CCCCCC(C)O (stereo not drawn) when you can.
Output: 3.0 ± 0.18%^d moles/L

Task: Let me know recorded IC50 (moles/L) for rhMMP-9 for `CC(C)O` , thanks.
Output: 4.4 ± 0.13%^e moles/L

Task: Indicate the recorded IC50 (moles/L) for rhMMP-9 value for this molecule: `CCO`
Output: 19.6 ± 0.36%^a moles/L

Task: Give IC50 (moles/L) for rhMMP-9 for CCCCC(O)CCC (stereo not drawn)
Output: 1.1 ± 0.04%^c moles/L
